# subject.of.test: Tel-TrkB (Homo sapiens, UniProt Q16620)
# Construct: dimerization domain of Tel (ETV6) transcription factor (fusion partner, human ETV6 P41212); expressed in transfected cells; host or cells: luciferase expressing Ba/F3 murine hematopoietic progenitor cells; the other entry of the earlier key: ETV6 (P41212, Transcription factor ETV6)
# Sequence (Q16620 538-822 limits assumed): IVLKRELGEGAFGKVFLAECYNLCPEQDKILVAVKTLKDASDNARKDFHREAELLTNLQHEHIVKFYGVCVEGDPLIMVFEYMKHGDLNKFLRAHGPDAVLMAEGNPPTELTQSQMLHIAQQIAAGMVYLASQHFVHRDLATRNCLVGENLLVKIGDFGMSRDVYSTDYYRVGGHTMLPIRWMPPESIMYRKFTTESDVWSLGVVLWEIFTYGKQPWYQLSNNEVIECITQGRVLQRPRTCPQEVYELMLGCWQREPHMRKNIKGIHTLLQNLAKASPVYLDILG
# procedure.text: Inhibition of proliferation of Ba/F3 cells expressing Tel-TrkB (BaF3/Tel-TrkB)
# Assay type: cell-based
# test.parameters: Ba/F3 Tel-TrkB cells; read-out: Ba/F3 Tel-TrkB IC 50
value.kind: IC50 (nM)

[P] C[C@H]1CN(c2ccc3ncc(-c4cccc(C#N)c4)n3n2)[C@H](c2ccccc2)C1(F)F
[Q] N#Cc1cccc(-n2cnc3ccc(N4C(=O)CSC4c4cc(F)ccc4F)nc32)c1 (centres unmarked)
[R] CC(C)(C)OC(=O)N1CCN(c2cccc(-c3cnc4ccc(N5CCOCC5c5cccc(F)c5)nn34)n2)CC1 (centres unmarked)
[S] CC(C)c1noc(C2CCN(c3cccc(-c4cnc5ccc(N6CCOCC6c6cccc(F)c6)nn45)n3)CC2)n1 (centres unmarked)
[T] Fc1ccc(F)c(C2CCCN2c2ccc3ncn(-c4cccc(-c5ncc[nH]5)c4)c3n2)c1 (centres unmarked)
Request: Ranking field: IC50; order: falling. Answer format: the labels, ordered as requested.
Response: Q, T, R, S, P

[A] O=C1CCN(c2cccc(-c3cnc4ccc(N5CCC[C@@H]5c5cccc(F)c5)nn34)n2)CC1
[B] CCOC(=O)N1CCC(n2c(=O)[nH]c3cc(-c4cnc5ccc(N6CCOCC6c6cccc(F)c6)nn45)ccc32)CC1 (centres unmarked)
[C] O=C(COCc1ccccc1)N1CCN(c2cccc(-c3cnc4ccc(N5CCC[C@@H]5c5cccc(F)c5)nn34)n2)CC1
Request: List from greatest to least IC50. Answer format: the labels, ordered as requested.
Response: B, C, A

[a] Fc1cccc(C2CCCN2c2ccc3ncc(-c4cccc(OCCN5CCOCC5)n4)n3n2)c1 (centres unmarked)
[b] CC(C)NC(=O)CN1CCN(c2cccc(-c3cnc4ccc(N5CCCC5c5cccc(F)c5)nn34)n2)CC1 (centres unmarked) [Table 7-Compound 96]
[c] Fc1cccc(C2COCCN2c2ccc3ncc(-c4cccc(NCCN5CCNCC5)n4)n3n2)c1 (centres unmarked)
[d] O=C(c1ccc(-c2cnc3ccc(N4CCCC4c4cccc(F)c4)nn23)cn1)N1CCC(O)CC1 (centres unmarked)
Request: Order the entries by their reported IC50, beginning at the minimum. Answer format: the labels, ordered as requested.
Response: b, a, c, d

[I] OCC1CCCN(c2cccc(-c3cnc4ccc(N5CCCC5c5cccc(F)c5)nn34)n2)C1 (centres unmarked)
[II] CC1CN(Cc2cccc(-c3cnc4ccc(N5CCCC5c5cccc(F)c5)nn34)n2)CC(C)O1 (centres unmarked)
Request: Identify the entry with the smaller IC50: I or II . Provide the label of your selected option as the answer.
Response: I
(I: 9 nM, II: 1140 nM)

[1] Fc1cccc(C2CCCN2c2ccc3ncc(-c4ccc5[nH]ccc5c4)n3n2)c1 (centres unmarked)
[2] Fc1ccc(N2CCN(c3cccc(-c4cnc5ccc(N6CCC[C@@H]6c6cccc(F)c6)nn45)n3)CC2)cc1
[3] CC(C)NC(=O)CN1CCN(c2cccc(-c3cnc4ccc(N5CCCC5c5cccc(F)c5)nn34)n2)CC1 (centres unmarked) [Table 4-Compound 32]
Request: List from greatest to least IC50. Answer format: the labels, ordered as requested.
Response: 2, 1, 3
